Numbers sourced from patent US9108978B2.

The compounds below have reported Ki for biotin protein ligase from Homo sapiens (HsBPL) (Homo sapiens (Human)).

Consider the following illustrative entries.
compound | assaySystem | Ki
O=C1N[C@H]2[C@H](CS[C@H]2CCCCCc2cn(CCCCOc3ccc4ccccc4c3)nn2)N1 [6.07] | biotin protein ligase from Homo sapiens (HsBPL) (Homo sapiens (Human)) | > 30 µM
Nc1ncnc2c1ncn2CCCCCn1cc(CCCC[C@@H]2SC[C@@H]3NC(=O)N[C@@H]32)nn1 [4.13] | biotin protein ligase from Homo sapiens (HsBPL) (Homo sapiens (Human)) | > 10 µM
Cc1ccc2oc(=O)n(CCCCn3cc(CCCCC[C@@H]4SC[C@@H]5NC(=O)N[C@@H]54)nn3)c2c1 [6.09] | biotin protein ligase from Homo sapiens (HsBPL) (Homo sapiens (Human)) | > 30 µM
Nc1ncnc2c1ncn2CCCCn1cc(CCCCC[C@@H]2SC[C@@H]3NC(=O)N[C@@H]32)nn1 [4.01] | biotin protein ligase from Homo sapiens (HsBPL) (Homo sapiens (Human)) | > 90 µM

Parameter requested: Ki. Apply to each item below.
1. CC1(C)O[C@@H]2[C@H](O1)[C@@H](n1cnc3c(N)ncnc31)O[C@H]2Cn1cc(CCCC[C@@H]2SC[C@@H]3NC(=O)N[C@@H]32)nn1 [4.09]
2. CC1(C)O[C@@H]2[C@H](O1)[C@@H](n1cnc3c(N)ncnc31)O[C@H]2Cn1cc(CCCCC[C@@H]2SC[C@@H]3NC(=O)N[C@@H]32)nn1 [3.25]

["> 10 µM", "> 90 µM"]

###

Record form. Attribute: pIC50. Fill in for each entry.
- assaySystem: UniProt:A0A3A5LBF0
- Sequence (A0A3A5LBF0 1-323): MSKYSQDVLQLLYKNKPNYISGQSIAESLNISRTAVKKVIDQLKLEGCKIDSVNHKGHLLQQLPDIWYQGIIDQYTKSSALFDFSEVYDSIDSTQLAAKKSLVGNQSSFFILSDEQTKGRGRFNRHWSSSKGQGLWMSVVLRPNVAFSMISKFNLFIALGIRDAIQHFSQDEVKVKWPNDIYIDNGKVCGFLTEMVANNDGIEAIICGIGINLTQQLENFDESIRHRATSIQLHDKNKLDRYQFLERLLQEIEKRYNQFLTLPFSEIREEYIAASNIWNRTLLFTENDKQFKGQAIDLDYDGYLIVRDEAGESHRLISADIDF
Answers are plain numbers, as −log10 of the molar value.

Consider the following illustrative entries.
compound | pIC50
O=C1N[C@H]2[C@H](CS[C@H]2CCCCCc2cn(CCCCOc3ccc4ccccc4c3)nn2)N1 [6.07] | 5.15
CC1(C)O[C@@H]2[C@H](O1)[C@@H](n1cnc3c(N)ncnc31)O[C@H]2Cn1cc(CCCCC[C@@H]2SC[C@@H]3NC(=O)N[C@@H]32)nn1 [3.25] | 4.94
Nc1ncnc2c1ncn2CCCCn1cc(CCCCC[C@@H]2SC[C@@H]3NC(=O)N[C@@H]32)nn1 [4.01] | 5.40

Shift focus to the following entry.
Form field: reported pIC50 of Cc1ccc2oc(=O)n(CCCCn3cc(CCCCC[C@@H]4SC[C@@H]5NC(=O)N[C@@H]54)nn3)c2c1 [6.09]
6.28
